Every entry's value here was drawn from ChEMBL document CHEMBL3988442.

system: Wolbachia pipientis; assay: Anti-Wolbachia Cell-Based Screen; type: functional; design: scale not given: in the data most compounds retested in dose-response had high values; conditions: 5 µM
Out of some 48,000 compounds screened, about 13,000 (27%) showed an effect of 50% or more. The list shows a part of the results.
Percent Effect for assorted molecules
The answer is to be given in %; state only the numeric part.

{"molecule": "Clc1ccc2[nH]c3c(c2c1)CCCC3c1nn[nH]n1 (stereo unspecified)", "units symbol": "%", "Percent Effect": 91.29}
{"molecule": "c1nc2n(c1CN1CCOCC1)CCN(C1CCOC1)CC2 (stereo unspecified)", "units symbol": "%", "Percent Effect": -7.987}
{"molecule": "c1ccc2c3c([nH]c2c1)C(c1nn[nH]n1)CCC3 (stereo unspecified)", "units symbol": "%", "Percent Effect": 118.9}

Endpoint output: Percent Effect of CCc1ccc(C(=O)N2CCCC(c3nn[nH]n3)C2)cc1 (stereo unspecified) . Value? 6.219

----------
test system: Wolbachia pipientis; test: Anti-Wolbachia Cell-Based Screen; assay type: functional; parameters: scale not given: in the data most compounds retested in dose-response had high values; conditions: 5 µM
Screen size: about 48,000 compounds; about 13,000 (27%) showed an effect of 50% or more. This is one part of the list.
Percent Effect by entry:
Value expressed in %; do not type the unit.

{"compound": "Cn1cnc2ccc(NC(=O)CCCn3cccn3)cc2c1=O", "test target": "Wolbachia pipientis", "Percent Effect, %": 106.9}

// query Percent Effect value for entry COCCn1ccc(NC(=O)Nc2ccncc2)n1 5.636

Given the entry c1coc(CN2CCC3(CC2)CC(N2CCCC2)CO3)c1 (configuration not stated) , report its measured Percent Effect. -47.38

I am curious: what Percent Effect value has been reported for O=C1CCC2(CCCN(C(=O)c3ccc[nH]3)C2)CN1Cc1cccnc1 (configuration not stated) ? -3.42

Would you mind telling me what Percent Effect value was observed for O=C(c1ccoc1)N1CCC(NCc2cccnc2)CC1 ? -13.71

Can you share its Percent Effect? I mean this compound: O=C1CCC2(CCCN(C(=O)c3ccoc3)C2)CN1Cc1ccncc1 (configuration not stated) 9.259

Could you tell me which Percent Effect is on file for CN(C)CC(=O)N1CCC2(CC1)CN(Cc1cccnc1)C(=O)CO2 ? 109.2

----------
system: Wolbachia pipientis; experiment: Anti-Wolbachia Cell-Based Screen; format: functional; parameters: scale not given: in the data most compounds retested in dose-response had high values; conditions: 5 µM
In all, about 48,000 compounds went through this assay and about 13,000 (27%) showed an effect of 50% or more. The list shows a part of the results.
measured attribute: Percent Effect (%)
All answers are understood in %, so give the number only.

{"compound": "O=C(O)C(F)(F)F.O=C(c1ccco1)N1C[C@@H]2OCCN(c3ncccn3)[C@@H]2C1", "Percent Effect [%]": 113.8}
{"compound": "CCNC(=O)Nc1ccc2c(ccn2CC(=O)N(CC)CC)c1", "Percent Effect [%]": -5.513}
{"compound": "CN(C)c1nc(CNC(=O)NC2CCc3ccccc32)cs1 (stereo not given)", "Percent Effect [%]": 14.75}

Entry under review: C[C@@H]1CN(Cc2ccncc2)C[C@@]1(O)C1CC1 . Reported Percent Effect? 102.1

Entry CCc1sc(-c2nnc(CNC(C)Cn3cc(C)cn3)o2)cc1C (stereo not given) has what Percent Effect? -3.595

----------
Listed here are compounds together with their documented Percent Effect.
tested on: Wolbachia pipientis; test: Anti-Wolbachia Cell-Based Screen; assay type: functional; parameters: scale not given: in the data most compounds retested in dose-response had high values; conditions: 5 µM
About 13,000 (27%) of roughly 48,000 compounds showed an effect of 50% or more. This is one part of the list.
Field format: number, assumed %, no unit text.

{"compound": "CCN1CC2(CC1=O)CN(C(C)=O)CCN(C(=O)NC(C)C)C2 (stereo unspecified)", "units symbol": "%", "Percent Effect": 101.7}

Note: attention shifts to another entry.
Quick check: Percent Effect of O=C(c1ccccc1O)N1CCn2c(nnc2C(F)(F)F)C1 ? -8.527

----------
test system: Wolbachia pipientis; assay: Anti-Wolbachia Cell-Based Screen; assay type: functional; set-up: scale not given: in the data most compounds retested in dose-response had high values; details: 5 µM
Screen size: about 48,000 compounds; about 13,000 (27%) showed an effect of 50% or more. The list shows a part of the results.
Percent Effect listing for selected compounds.

{"compound": "Cc1ccc2c(c1)OCCN2C(=O)c1ccc(=O)n(C)c1", "result": "10.97%"}
{"compound": "Cc1noc(C)c1CSc1nc(=O)ccn1C(C)C", "result": "-1.27%"}
{"compound": "CC(C)(C)c1noc(CCC(=O)N2CCNC(=O)C2)n1", "result": "-18.81%"}
{"compound": "Cc1nc(CN(C)S(=O)(=O)c2ccc(F)cc2Br)no1", "result": "-1.638%"}
{"compound": "COc1nn(C)cc1C(=O)N1CCC(C)CC1", "result": "127.9%"}
{"compound": "Cn1cnc2cc(C(=O)N3CCC(c4ccccc4C(=O)O)C3)cnc21 (configuration not stated)", "result": "0.5169%"}
{"compound": "COc1ccc(-c2nnc(C(C)N3CCOC(C)(C)C3)o2)cc1 (configuration not stated)", "result": "-4.024%"}
{"compound": "Cc1cccc(CO[C@H]2CO[C@@]3(CCN(S(=O)(=O)N(C)C)C3)C2)n1", "result": "-27.75%"}
{"compound": "CCN(Cc1csc(CS(C)(=O)=O)n1)c1cccc(F)c1", "result": "0.8671%"}
{"compound": "O=C(NCCNC(=O)N1CCC(c2ccccc2)C1)C1CC1 (configuration not stated)", "result": "-9.135%"}

Entry under review: COCCNC(=O)Nc1cc2c(cc1SC)OCCO2 . Reported Percent Effect? 8.638%

Could you share which Percent Effect value was measured for CNC(=O)[C@@H](c1ccccc1F)N1CCC[C@H]1C(=O)NC1CCOCC1.Cl ? 3.155%

----------
system: Wolbachia pipientis; assay: Anti-Wolbachia Cell-Based Screen; assay type: functional; design: scale not given: in the data most compounds retested in dose-response had high values; conditions: 5 µM
Out of some 48,000 compounds screened, about 13,000 (27%) showed an effect of 50% or more. The list shows a part of the results.
measured attribute: Percent Effect (%)
# value in %; strip the unit string

{"molecule": "Cc1ccc(NC(=O)N2CCN(Cc3noc(C4CC4)n3)CC2)cc1", "test target": "Wolbachia pipientis", "Percent Effect (%)": 4.61}
{"molecule": "CC(NCCn1cccn1)c1cc(F)ccc1F (stereo unspecified)", "test target": "Wolbachia pipientis", "Percent Effect (%)": 17.19}
{"molecule": "CCN(CC)C(CNCc1ccc(OC)c(F)c1)c1ccco1 (stereo unspecified)", "test target": "Wolbachia pipientis", "Percent Effect (%)": 3.453}

Find the recorded Percent Effect belonging to CC(C)c1nc(N2CC[C@@H](N(C)CCc3ccccn3)[C@H](O)C2)no1 and report it. -7.34

----------
test system: Wolbachia pipientis; experiment: Anti-Wolbachia Cell-Based Screen; format: functional; parameters: scale not given: in the data most compounds retested in dose-response had high values; details: 5 µM
Out of some 48,000 compounds screened, about 13,000 (27%) showed an effect of 50% or more. Some of the results follow.
measured attribute: Percent Effect (%)
Your answer should be a plain number; it is taken to be in %.

{"compound": "CN1C[C@@H](O)[C@]2(CCN(C(=O)OCc3ccccc3)C2)S1(=O)=O", "test target": "Wolbachia pipientis", "units symbol": "%", "result number": 96.78}

Short answer please: Percent Effect, Wolbachia pipientis, entry COC(=O)CCNC(=O)c1ccc(OCc2ccccc2)nc1 0.7688

For the record CN1C[C@H](O)[C@]2(CCN(C(=O)COc3ccccc3)C2)S1(=O)=O , what value of Percent Effect is listed for Wolbachia pipientis? 115.7

What measured Percent Effect is associated with CN1C[C@@H]2CN(C(=O)NCc3ccccc3)CCC[C@]2(C(=O)O)C1.O=C(O)C(F)(F)F on Wolbachia pipientis? 10.95

Provide value of Percent Effect for this record tested with Wolbachia pipientis: COc1cccc(OCC(=O)N2CCC3(CC2)[C@H](O)C[C@@H]3OC)c1 6.956

Find the measured Percent Effect: item COc1cccc(CN(C)C(=O)CN2CCN(c3nccs3)CC2)c1 , target or system Wolbachia pipientis. 7.332

Give Percent Effect (Wolbachia pipientis) of the following compound: COCCC(=O)N1CCC2(CC1)CC(c1ccccc1)CN(C)C2 (stereo unspecified) 9.484

----------
test system: Wolbachia pipientis; assay: Anti-Wolbachia Cell-Based Screen; type: functional; design: scale not given: in the data most compounds retested in dose-response had high values; conditions: 5 µM
Screen size: about 48,000 compounds; about 13,000 (27%) showed an effect of 50% or more. The list shows a part of the results.
measured attribute: Percent Effect (%)
Give the value, in units of %, as a plain number.

Take a look at these entries with their results.
{"molecule": "COC(=O)CCC(=O)N1CCc2nc(C(=O)N(C)C)sc2CC1", "Percent Effect, %": -18.4}
{"molecule": "Cc1nc2ncccn2c1C(=O)N1CCc2[nH]cnc2C1", "Percent Effect, %": 16.62}
{"molecule": "CCCNC(=O)Cc1c(C)nc2c(c1C)c(=O)[nH]n2C", "Percent Effect, %": -12.53}
{"molecule": "CC(C)Oc1cc(N2CCC(C(N)=O)CC2)nc(N)n1", "Percent Effect, %": 11.1}
{"molecule": "Cc1ccsc1C(=O)N1CC[C@H]2CO[C@H](CN(C)C)[C@H]2C1.O=C(O)C(F)(F)F", "Percent Effect, %": 3.155}
{"molecule": "COc1nn(C)cc1C(=O)NCC(=O)NCc1cccnc1", "Percent Effect, %": -2.836}

What value of Percent Effect has been reported for the following molecule? O=C(c1ccncc1F)N1CCN(CC2CC2)c2ncccc2C1 10.49

Bench note: what Percent Effect did COCCn1nc(C(=O)N(C)Cc2cccnc2)ccc1=O show? 131.6

Record request: Percent Effect value, item CN1CCN(C(=O)Cc2cccc(F)c2)Cc2cccnc21.O=C(O)C(F)(F)F -17.2

# lookup: Percent Effect of O=C(NCC1CCOC1)c1csc(Cc2ccccc2)n1 (stereo not drawn) 5.242

Name the reported Percent Effect value associated with the molecule O=C(O)C(F)(F)F.O=C(O)C(F)(F)F.O=C(c1ccnnc1)N1CCN(Cc2ccncc2)c2ncccc2C1 96.92

Entry O=C(NCC1CCOCC1)c1cc(-c2ccncc2)c2cnccc2n1 : reported Percent Effect = ? 108.8

Dear colleague, I am looking for the recorded Percent Effect of the following molecule: CN(C)c1cc(CNc2cncc(-n3cccn3)n2)ccn1 94.25

Please report the recorded Percent Effect for O=c1[nH]c(C2CCOC2)nc2ccc(Cl)cc12 (stereo not drawn) . -0.06581

Entry CN(C)C(=O)CO[C@H]1CN(Cc2ccccc2)[C@@H]2CCCO[C@H]12.O=C(O)C(F)(F)F has what Percent Effect? 0.8065
